experiment: Cytotoxicity against human HeLa cells assessed as cell viability at <=1 uM by WST8 assay
Assay type: cell-based
condition description: read-out: Activity
Starred links: 1 amine or outer side, 2 acyl side, 3 side chain; linkers in the order of their positions; H or OH if unused. Positions of bridges follow the written chain, without caps; N, C: chain ends. Non-standard residues stand in square brackets, D forms with d. Chains are numbered I, II in the order given. εLys = N[C@@H](CCCCN[*:1])C(=O)[*:2]; Nle = CCCC[C@H](N)C(=O)O
measured property: viability

Please report the recorded viability for I: H-[Nle]SSLRRQ[Nle]KNIVHNYS[εLys]GKGKG-OH / II: H-[Nle]SSLRRQ[Nle]KNIVHNYS / III: H-[Nle]SSLRRQ[Nle]KNIVHNYS (amide I:19-III:C, I:21-II:C) .
> 90%
